Target: T1, TIGIT (T cell immunoreceptor with Ig and ITIM domains) (human, UniProt Q495A1 22-141, limits assumed)
T1 construct: also called hTIGIT; human TIGIT
T1 sequence (looked up): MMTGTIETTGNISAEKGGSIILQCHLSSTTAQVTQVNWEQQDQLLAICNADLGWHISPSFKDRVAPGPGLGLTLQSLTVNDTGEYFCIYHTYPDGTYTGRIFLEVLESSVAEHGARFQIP
Assay: SPR kinetics
quantity kind: Kd (nM)
# number only, unit nM dropped from output

Consider TIGIT-211-93 (antibody, V domains shown) VH: EVQLLESGGGLVQPGGSLRLSCAASGFTFSRYFMGWVRQAPGKGLEWVSEISPSGKKKYYADSVKGRFTISRDNSKNTLYLQMNSLRAEDTAVYYCAKSSFDKYNFDYWGQGTLVTVSS VL: DIQMTQSPSSLSASVGDRVTITCSASQDINKYLNWYQQKPGKAPKLLIYHTSRLQSGVPSRFSGSGSGTDFTLTISSLQPEDFATYYCQQFAYFPATFGQGTKVEIK . Its measured Kd is 1240

The recorded Kd for entry TIGIT-211-95 (antibody, V domains shown) VH: EVQLLESGGGLVQPGGSLRLSCAASGFTFPKYGMAWVRQAPGKGLEWVSTISSGGGYTYYPDSVKGRFTISRDNSKNTLYLQMNSLRAEDTAVYYCARDTYLHFDYWGQGTLVTVSS VL: DIQMTQSPSSLSASVGDRVTITCRASQGVRTSLAWYQQKPGKAPKLLIYAKNNRPSGVPSRFSGSGSGTDFTLTISSLQPEDFATYYCQQSYSAPYTFGQGTKVEIK equals 355

// TIGIT-211-77 (antibody, V domains shown) VH: EVQLLESGGGLVQPGGSLRLSCAASGFTFGNYAMAWVRQAPGKGLEWVSSIWPSGGQTWYADSVKGRFTISRDNSKNTLYLQMNSLRAEDTAVYYCAKGGTSFDYWGQGTLVTVSS VL: DIQMTQSPSSLSASVGDRVTITCRASQSVRSYLNWYQQKPGKAPKLLIYAASSLYSGVPSRFSGSGSGTDFTLTISSLQPEDFATYYCQQYASVPVTFGQGTKVEIK : Kd value = 683
